test system: NCI-H23 lung; assay: NCI tumour cell line growth inhibition, 48 h
endpoint.name: TGI

// below: answered molecules
COc1ccc2c(c1)CN1C(=N2)CSC1c1cc([N+](=O)[O-])ccc1Cl (stereo not drawn): > 100 µM
COc1ccc(CNc2c3ccccc3nc3ccccc23)cc1OC: 7.47 µM
COC(=O)[C@@H](NC(=O)[C@@H](OC)[C@@H]1Cc2cc3cc(OC4CC(OC5CC(O)C(O)C(C)O5)C(O)C(C)O4)c(C)c(O)c3c(O)c2C(=O)[C@H]1OC1CC(OC2CC(OC3CC(C)(O)C(O)C(C)O3)C(O)C(C)O2)C(O)C(C)O1)C(C)C (stereo partly drawn): 13.5 µM
O=C(O)c1ccccc1-c1ccccc1C(=O)Nc1ccc2c(c1)Cc1cc(F)ccc1-2: 36.5 µM
COc1ccccc1NC(=O)C1=C(C)NC(C)=C(C(=O)Nc2ccccc2OC)C1c1ccc([N+](=O)[O-])cc1: > 100 µM

For record CC1=C(Br)C(Br)=C(C)S1=O the listed TGI is > 100 µM

Short answer for NC(N)=N/N=C/c1cc(Cl)cc(Cl)c1O : TGI was > 100 µM

For COc1ccc2c(c1)CCc1c-2[nH]c2ccc(OC)cc12 the molecule record lists TGI as > 100 µM

Cited source: PubChem BioAssay (NCI)
